# Test target: NEK1 (human)
# Experiment description: radiometric filter-binding kinase assay, Kinase HotSpot
# Particulars: compound 0.5 µM; ATP 10 µM
Readout: residual activity (%)

[[record]]
structure = "CC(C)(C)c1cc(C=C(C#N)C#N)cc(Br)c1O"
recorded_measurement = 97.7

[[record]]
structure = "O=C1c2ccccc2-c2nc3nnnn3nc21"
recorded_measurement = 46.3

[[record]]
structure = "N#Cc1c[nH]c2c[nH]/c(=N\\Cc3cccnc3)cc2/c1=N\\c1ccc(F)c(Cl)c1"
recorded_measurement = 20.5

[[record]]
structure = "COc1cc(Nc2c(C#N)cnc3cc(OCCCN4CCN(C)CC4)c(OC)cc23)c(Cl)cc1Cl"
recorded_measurement = 15.2

[[record]]
structure = "Ic1cccc(CSc2nnc(-c3ccncc3)o2)c1"
recorded_measurement = 95.5

[[record]]
structure = "Cc1cncc2cccc(S(=O)(=O)N3CCCN(C(=O)CN)C[C@H]3C)c12"
recorded_measurement = 100

[[record]]
structure = "Cc1nc(-c2ccccc2)c(-c2ccncc2)o1"
recorded_measurement = 103

[[record]]
structure = "O=C1C(Cl)=C(N2C(=O)CCC2=O)C(=O)c2ccccc21"
recorded_measurement = 90

[[record]]
structure = "O=C(c1cc2cc(O)ccc2[nH]1)c1cc2cc(O)ccc2[nH]1"
recorded_measurement = 93.4

[[record]]
structure = "COc1cc2ncnc(Nc3ccc(OCc4ccccc4)cc3)c2cc1OC"
recorded_measurement = 104

[[record]]
structure = "Cn1c2ccccc2c2c3c(c4c5ccccc5n(CCC#N)c4c21)CNC3=O"
recorded_measurement = 62.9


* * *

Attribute: residual activity
# Test target: ABL1 (human)
# Experiment description: radiometric filter-binding kinase assay, Kinase HotSpot
# Particulars: compound 0.5 µM; ATP 10 µM
Readout: residual activity

[[record]]
structure = "Fc1ccc(-c2nc3n(c2-c2ccncc2)CCS3)cc1"
readout = "residual activity"
recorded_measurement = "102%"

[[record]]
structure = "COc1cc2ncnc(Nc3ccc(Oc4ccccc4)cc3)c2cc1OC"
readout = "residual activity"
recorded_measurement = "81.8%"

[[record]]
structure = "CCCCc1c(-c2ccc(OC)cc2)[nH]c2nccnc12"
readout = "residual activity"
recorded_measurement = "83.4%"

[[record]]
structure = "Cn1c2ccccc2c2c3c(c4c5ccccc5n(CCC#N)c4c21)CNC3=O"
readout = "residual activity"
recorded_measurement = "84.6%"

[[record]]
structure = "C[C@@H]1CCN(C(=O)CC#N)C[C@@H]1N(C)c1ncnc2[nH]ccc12"
readout = "residual activity"
recorded_measurement = "101%"

[[record]]
structure = "O=C1Nc2ccc(Br)cc2/C1=C\\c1cc2c([nH]1)CCCC2"
readout = "residual activity"
recorded_measurement = "91.8%"


* * *

# Test target: MAP4K4 (human)
# Experiment description: radiometric filter-binding kinase assay, Kinase HotSpot
# Particulars: compound 0.5 µM; ATP 10 µM
Readout: residual activity (%)

[[record]]
structure = "COc1ccc2c(c1)/C(=C/c1cnc[nH]1)C(O)=N2"
test_target = "MAP4K4 (human)"
recorded_measurement = 19.4

[[record]]
structure = "CC(C)(C)c1cc(C=C(C#N)C#N)cc(Br)c1O"
test_target = "MAP4K4 (human)"
recorded_measurement = 96.2

[[record]]
structure = "O=C1Nc2ccc(Br)cc2/C1=C\\c1cc2c([nH]1)CCCC2"
test_target = "MAP4K4 (human)"
recorded_measurement = 6.84

[[record]]
structure = "NC(=O)c1cccc(-c2cc(Nc3ccc(OC(F)(F)F)cc3)ncn2)c1"
test_target = "MAP4K4 (human)"
recorded_measurement = 104

[[record]]
structure = "COc1cc2ncnc(Nc3ccc(Oc4ccccc4)cc3)c2cc1OC"
test_target = "MAP4K4 (human)"
recorded_measurement = 90.5

[[record]]
structure = "N#Cc1c[nH]c2c[nH]/c(=N\\Cc3cccnc3)cc2/c1=N\\c1ccc(F)c(Cl)c1"
test_target = "MAP4K4 (human)"
recorded_measurement = 44.4

[[record]]
structure = "COc1ccc(C(=O)Nc2sc3c(c2C(N)=O)CCCC3)cc1OC"
test_target = "MAP4K4 (human)"
recorded_measurement = 79.9

[[record]]
structure = "O=C1c2ccccc2-c2nc3nnnn3nc21"
test_target = "MAP4K4 (human)"
recorded_measurement = 89

[[record]]
structure = "Cc1cccc(-c2nc(C(C)(C)C)[nH]c2-c2ccc3c(c2)OCO3)n1"
test_target = "MAP4K4 (human)"
recorded_measurement = 86.9

[[record]]
structure = "COc1cc2ncnc(Nc3ccc(OCc4ccccc4)cc3)c2cc1OC"
test_target = "MAP4K4 (human)"
recorded_measurement = 103

[[record]]
structure = "CCCCc1c(-c2ccc(OC)cc2)[nH]c2nccnc12"
test_target = "MAP4K4 (human)"
recorded_measurement = 66.5


All figures here come from the kinase profiling compilation of Christmann-Franck et al. (2016).
